# assay_text: Inhibition of IL5 in mouse Y16 cells
# Format: functional
# Set-up: concentration or dose not given beside the values
Inhibition values for the molecules below.
outcome_measure: Inhibition (%)

1) O=C(O)c1ccc(/C=C/C(=O)c2c(O)cccc2OCC2CCCCC2)cc1
100
2) O=C(/C=C/c1ccc(O)cc1)c1ccc(OCc2ccccc2)cc1O
77.6
3) NS(=O)(=O)c1ccc(/C=C/C(=O)c2c(O)cccc2OCc2ccccc2)cc1
99.5
4) O=C(O)c1ccc(/C=C/C(=O)c2ccccc2OCc2ccccc2)cc1
15
5) O=C(/C=C/c1ccc(CO)cc1)c1c(O)cccc1OCC1CCCCC1
99.3
6) O=C(O)c1ccc(/C=C/C(=O)c2ccc(OCC3CCCCC3)cc2O)cc1
100
7) Nc1ccc(/C=C/C(=O)c2c(O)cccc2OCC2CCCCC2)cc1
16.4
8) O=C(O)c1ccc(/C=C/C(=O)c2c(O)cccc2OCc2ccccc2)cc1
100
9) O=C(/C=C/c1ccc(O)cc1)c1c(O)cccc1OCC1CCCCC1
99
10) COCOc1ccc(/C=C/C(=O)c2c(O)cccc2OCc2ccccc2)cc1
47.8
